Provenance of the data: the RNAGym collection of RNA variant scans (doi:10.1101/gad.245936.114)

B1: tRNA (parent)
chain: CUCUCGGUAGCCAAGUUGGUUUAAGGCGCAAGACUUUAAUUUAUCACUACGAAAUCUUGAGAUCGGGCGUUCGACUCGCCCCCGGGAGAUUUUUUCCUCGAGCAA

- Variants of: B1
- assay: nonsense suppression (GFP-seq) (ratio to wild type); higher = more function; SUP4oc tRNA, yeast GFP reporter sort-seq
This sample holds only a part of the variants without activity.
Please mark Satisfied if the recorded nonsense suppression is equal to or greater than 0.08, and Not satisfied if it falls below.

[
  {
    "mutation-annotation": "A9U U16G",
    "answer-label": "Satisfied"
  },
  {
    "mutation-annotation": "U2A C27U",
    "answer-label": "Not satisfied"
  },
  {
    "mutation-annotation": "C3U",
    "answer-label": "Satisfied"
  },
  {
    "mutation-annotation": "C34G C81A",
    "answer-label": "Not satisfied"
  },
  {
    "mutation-annotation": "G25A G61A G84C",
    "answer-label": "Not satisfied"
  },
  {
    "mutation-annotation": "C3G U4G",
    "answer-label": "Not satisfied"
  },
  {
    "mutation-annotation": "U63G",
    "answer-label": "Satisfied"
  },
  {
    "mutation-annotation": "U20G A33U",
    "answer-label": "Satisfied"
  },
  {
    "mutation-annotation": "C5G A60C C64A",
    "answer-label": "Not satisfied"
  },
  {
    "mutation-annotation": "U17G A33U U63G C68A U71G",
    "answer-label": "Not satisfied"
  },
  {
    "mutation-annotation": "G25U C34A U71A U76A",
    "answer-label": "Not satisfied"
  },
  {
    "mutation-annotation": "U17C U55C G59A G66C",
    "answer-label": "Not satisfied"
  },
  {
    "mutation-annotation": "G73A C79U",
    "answer-label": "Satisfied"
  },
  {
    "mutation-annotation": "C1G G10C C29U C34G A89G",
    "answer-label": "Not satisfied"
  },
  {
    "mutation-annotation": "A13C G73A",
    "answer-label": "Satisfied"
  },
  {
    "mutation-annotation": "G69C A89G",
    "answer-label": "Not satisfied"
  },
  {
    "mutation-annotation": "A24C C29U",
    "answer-label": "Satisfied"
  },
  {
    "mutation-annotation": "A13U U57A",
    "answer-label": "Not satisfied"
  },
  {
    "mutation-annotation": "A14U G61C C79U",
    "answer-label": "Not satisfied"
  }
]
